Test system: Staphylococcus aureus
Assay: Antibacterial activity against Staphylococcus aureus ATCC 29213 at 50 ug/mL after 18 hrs by broth microdilution technique
Type: functional, organism-based
Active and inactive are the calls of the source. The rule behind the calls is not given here.
readout-name: Activity

O=C1[C@H](Cc2ccccc2)NC(=O)[C@@]2(O)CCCN12 ... inactive
O=C1[C@H](Cc2ccccc2)NC(=O)[C@]2(O)CCCN12 ... inactive
O=C1C(O)=C(c2ccc(O)cc2)[C@@H]2CCCN12 ... inactive
O=C1N[C@@H](Cc2ccccc2)C(=O)N2CCC=C12 ... inactive

Data provenance is ChEMBL document CHEMBL1157313.
